The reader will find reported EC50 values listed item by item below.
Biological target: ΔF508-CFTR (Homo sapiens, UniProt P13569, DEL508-508)
Sequence (P13569 with tags, fused parts or gaps DEL508-508): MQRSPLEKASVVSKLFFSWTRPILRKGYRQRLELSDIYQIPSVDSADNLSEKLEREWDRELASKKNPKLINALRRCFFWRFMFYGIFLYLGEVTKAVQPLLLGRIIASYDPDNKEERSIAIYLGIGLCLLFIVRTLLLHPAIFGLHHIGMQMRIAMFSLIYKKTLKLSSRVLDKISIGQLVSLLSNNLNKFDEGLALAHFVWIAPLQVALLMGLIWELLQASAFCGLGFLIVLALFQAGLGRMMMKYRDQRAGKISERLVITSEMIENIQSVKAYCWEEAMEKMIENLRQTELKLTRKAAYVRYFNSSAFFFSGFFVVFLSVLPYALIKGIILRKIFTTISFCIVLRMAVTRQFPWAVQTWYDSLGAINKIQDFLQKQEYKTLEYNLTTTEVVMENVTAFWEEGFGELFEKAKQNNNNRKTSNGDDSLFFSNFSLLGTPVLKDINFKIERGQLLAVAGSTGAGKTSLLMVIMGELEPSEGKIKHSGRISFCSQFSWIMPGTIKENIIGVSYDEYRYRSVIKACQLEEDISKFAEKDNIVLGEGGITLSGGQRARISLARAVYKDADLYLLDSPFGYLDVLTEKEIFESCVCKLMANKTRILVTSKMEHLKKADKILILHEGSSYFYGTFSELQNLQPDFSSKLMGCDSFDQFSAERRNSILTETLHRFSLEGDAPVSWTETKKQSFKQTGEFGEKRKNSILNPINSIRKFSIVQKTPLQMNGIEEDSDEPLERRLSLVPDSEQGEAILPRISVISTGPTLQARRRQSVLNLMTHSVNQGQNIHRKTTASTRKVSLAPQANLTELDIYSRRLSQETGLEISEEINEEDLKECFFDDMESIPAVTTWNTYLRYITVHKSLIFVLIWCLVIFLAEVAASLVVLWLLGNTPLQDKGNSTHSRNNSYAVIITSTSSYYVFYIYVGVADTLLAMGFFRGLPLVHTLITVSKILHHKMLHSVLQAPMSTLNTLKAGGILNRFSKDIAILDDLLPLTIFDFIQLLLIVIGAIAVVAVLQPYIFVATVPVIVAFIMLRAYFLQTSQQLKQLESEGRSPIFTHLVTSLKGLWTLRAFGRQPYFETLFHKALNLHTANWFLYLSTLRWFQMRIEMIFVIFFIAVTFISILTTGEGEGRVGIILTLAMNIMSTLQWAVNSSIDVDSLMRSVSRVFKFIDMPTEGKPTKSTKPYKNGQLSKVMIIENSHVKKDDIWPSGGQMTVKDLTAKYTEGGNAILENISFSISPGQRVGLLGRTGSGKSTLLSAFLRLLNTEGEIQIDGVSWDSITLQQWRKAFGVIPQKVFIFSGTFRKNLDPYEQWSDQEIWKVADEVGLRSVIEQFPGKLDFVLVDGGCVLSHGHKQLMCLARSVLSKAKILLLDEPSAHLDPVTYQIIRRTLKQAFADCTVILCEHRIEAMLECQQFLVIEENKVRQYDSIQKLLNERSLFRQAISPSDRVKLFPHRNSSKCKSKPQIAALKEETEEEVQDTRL
Experiment: Membrane potential optical (FRET/VIPR) assay, identification of potentiator compounds
Details: Table 3; assay not given

See these solved cases before continuing.
O=C(Nc1ccc(N2CCC2)cc1C(F)(F)F)c1c[nH]c2ccccc2c1=O | < 10 µM
O=C(Nc1nc2ccccc2[nH]1)c1c[nH]c2ccccc2c1=O | 25 to 60 µM
O=C(Nc1ccccc1-c1cc(F)ccc1F)c1c[nH]c2ccccc2c1=O | < 10 µM
CCc1cc(Br)ccc1NC(=O)c1c[nH]c2ccccc2c1=O | < 10 µM
O=C(Nc1cccc2[nH]ccc12)c1c[nH]c2ccccc2c1=O | 25 to 60 µM

What value of EC50 has been reported for the following compound? Cc1cccc2[nH]cc(C(=O)Nc3ccc(N4CC[C@@H](F)C4)cc3C(F)(F)F)c(=O)c12
< 10 µM

Quick check: EC50 of CCCOC(=O)NCC(C)(C)c1ccc(NC(=O)c2c[nH]c3ccccc3c2=O)cc1 ?
< 10 µM

Entry C[C@H]1CCCCN1c1ccc(NC(=O)c2c[nH]c3ccccc3c2=O)c(C(F)(F)F)c1 : reported EC50 = ?
< 10 µM

Give the measured EC50 of Cn1c(=O)oc2ccc(NC(=O)c3c[nH]c4ccccc4c3=O)cc21 .
25 to 60 µM

Need EC50 of O=C(Nc1cnccn1)c1c[nH]c2ccccc2c1=O , thanks.
25 to 60 µM

Return reported EC50; argument: O=C(Nc1ccccc1Oc1ccccc1)c1c[nH]c2ccccc2c1=O
< 10 µM

---

Molecular target: ΔF508-CFTR (Homo sapiens, UniProt P13569, DEL508-508)
Construct: expressed in transfected cells
Experiment: Membrane potential optical (FRET/VIPR) assay, identification of potentiator compounds
Assay type: cell-based
Conditions: Table 3; relative efficacy; assay not given
Reported property: % Activity

Examples from the recorded data:
O=C(Nc1cc2[nH]ccc2cc1Cl)c1c[nH]c2ccccc2c1=O | ++ (between 25% to 100%)
O=C(Nc1ccc(N2CCC[C@@H]2CO)cc1C(F)(F)F)c1c[nH]c2ccccc2c1=O | ++ (between 25% to 100%)
CC(C)(C)c1cc(C(C)(C)C)c(NC(=O)c2c[nH]c3ccc(Cl)cc3c2=O)cc1O | ++ (between 25% to 100%)
O=C(Nc1ccc2oc(-c3ccccc3)nc2c1)c1c[nH]c2ccccc2c1=O | + (<25%)
O=C(Nc1ccc2c(c1)NCCC2)c1c[nH]c2ccccc2c1=O | ++ (between 25% to 100%)
O=C(Nc1ccc2cc(C(F)(F)F)[nH]c2c1)c1c[nH]c2ccc(F)cc2c1=O | ++ (between 25% to 100%)
CCc1cccc(C(C)CC)c1NC(=O)c1c[nH]c2ccccc2c1=O (centres unmarked) | ++ (between 25% to 100%)

Now let's try a different one.
What measured % Activity goes with O=C(Nc1ccc(S(=O)(=O)Nc2ccccn2)cc1)c1c[nH]c2ccccc2c1=O ?
+ (<25%)

---

Target: ΔF508-CFTR (Homo sapiens, UniProt P13569, DEL508-508)
Assay: Membrane potential optical (FRET/VIPR) assay, identification of potentiator compounds
Conditions: Table 3; assay not given
pEC50: −log10 of the molar value.
Reported property: pEC50

Use these answered entries as a reference point.
O=C(Nc1cc(C(F)(F)F)cc(C(F)(F)F)c1)c1c[nH]c2ccccc2c1=O | 4.22 to 4.60
C=C(C)c1ccccc1NC(=O)c1c[nH]c2ccccc2c1=O | > 5.00

Look up pEC50 with ΔF508-CFTR (Homo sapiens, UniProt P13569, DEL508-508) for this molecule: CCCCOc1ccccc1NC(=O)c1c[nH]c2ccccc2c1=O
> 5.00

Please provide the recorded pEC50 for CC1(c2cc(F)c(NC(=O)c3cnc4ccccc4c3O)cc2O)CCCCCC1 , tested on ΔF508-CFTR (Homo sapiens, UniProt P13569, DEL508-508).
> 5.00

Give pEC50 (ΔF508-CFTR (Homo sapiens, UniProt P13569, DEL508-508)) of the following molecule: COc1ccc(NC(C)=O)cc1NC(=O)c1c[nH]c2ccccc2c1=O
4.22 to 4.60

---

Target: ΔF508-CFTR (Homo sapiens, UniProt P13569, DEL508-508)
Construct: expressed in transfected cells
Experiment: Membrane potential optical (FRET/VIPR) assay, identification of potentiator compounds
Assay type: cell-based
Settings: Table 3; relative efficacy; assay not given
Reported property: % Activity

Worked set:
N#Cc1c(Cl)cccc1NC(=O)c1c[nH]c2ccccc2c1=O [Compound 222] | ++ (between 25% to 100%)
Cc1cccc2[nH]cc(C(=O)Nc3ccc(OC(C)C)c(O)c3)c(=O)c12 [Compound 701] | ++ (between 25% to 100%)
CCCc1ccccc1NC(=O)c1c[nH]c2ccccc2c1=O [Compound 16] | ++ (between 25% to 100%)
O=C(Nc1ccccc1-c1cccc(F)c1)c1c[nH]c2ccccc2c1=O [Compound 277] | +++ (>100%)
O=C(Nc1ccc2c(c1)CCO2)c1c[nH]c2ccccc2c1=O [Compound 467] | + (<25%)
CC(C)(C)C(=O)Nc1ccc(NC(=O)c2c[nH]c3ccccc3c2=O)c(C(F)(F)F)c1 [Compound 556] | ++ (between 25% to 100%)
Cc1cc(-c2ccccc2NC(=O)c2c[nH]c3ccccc3c2=O)ccc1F [Compound 79] | ++ (between 25% to 100%)
CC(C)(C)COC(=O)NCC(C)(C)c1ccc(NC(=O)c2c[nH]c3ccccc3c2=O)cc1 [Compound 341] | ++ (between 25% to 100%)

Could you tell me which % Activity is on file for O=C(Nc1ccc(F)cn1)c1c[nH]c2ccccc2c1=O [Compound 477] ?
+ (<25%)

Give its % Activity value. Item: CN(C)[C@@H]1CCN(c2ccc(NC(=O)c3c[nH]c4ccccc4c3=O)c(C(F)(F)F)c2)C1 [Compound 534]
++ (between 25% to 100%)

# % Activity lookup, item CC(C)(C)c1cc(C(C)(C)C)c(NC(=O)c2c[nH]c3c(Cl)cccc3c2=O)cc1O [Compound 663]
++ (between 25% to 100%)

---

Biological target: ΔF508-CFTR (Homo sapiens, UniProt P13569, DEL508-508)
Construct: expressed in transfected cells
Test: Membrane potential optical (FRET/VIPR) assay, identification of potentiator compounds
Format: cell-based
Conditions: Table 3; relative efficacy; assay not given
Reported property: % Activity

CC(C)(C)c1cc(C(C)(C)C)c(NC(=O)c2c[nH]c3c(F)ccc(F)c3c2=O)cc1O | ++ (between 25% to 100%)
O=C(Nc1ccc(N2CCC[C@H]2C(=O)O)cc1C(F)(F)F)c1c[nH]c2ccccc2c1=O | ++ (between 25% to 100%)

---

Molecular target: ΔF508-CFTR (Homo sapiens, UniProt P13569, DEL508-508)
Construct: expressed in transfected cells
Assay: Membrane potential optical (FRET/VIPR) assay, identification of potentiator compounds
Assay type: cell-based
Conditions: Table 3; relative efficacy; assay not given
Reported property: % Activity

CC(C)(C)c1ccc(NC(=O)c2c[nH]c3ccccc3c2=O)c(C(C)(C)C)c1O | +++ (>100%)
Cc1ccc(-c2ccccc2NC(=O)c2c[nH]c3ccccc3c2=O)cc1C | ++ (between 25% to 100%)
CC(C)(C)c1cc2ccc(NC(=O)c3c[nH]c4ccccc4c3=O)cc2[nH]1 | ++ (between 25% to 100%)
Cc1cc(C2CCCCC2)ccc1NC(=O)c1c[nH]c2ccccc2c1=O | ++ (between 25% to 100%)
Cc1cccc2[nH]cc(C(=O)Nc3ccc(OC(C)C)cc3C(F)(F)F)c(=O)c12 | +++ (>100%)
O=C(Nc1cc2[nH]ccc2cc1F)c1c[nH]c2ccc(F)cc2c1=O | ++ (between 25% to 100%)
O=C(Nc1nc2ccccc2[nH]1)c1c[nH]c2ccccc2c1=O | + (<25%)
CCc1cc2cc[nH]c2cc1NC(=O)c1c[nH]c2cccc(O)c2c1=O | ++ (between 25% to 100%)

Which % Activity is listed for O=C(Nc1cccc2c1Cc1ccccc1-2)c1c[nH]c2ccccc2c1=O ?
++ (between 25% to 100%)

Look up % Activity for this molecule: CN(C)c1ccc2[nH]cc(C(=O)Nc3cc(O)c(C(C)(C)C)cc3C(C)(C)C)c(=O)c2c1
++ (between 25% to 100%)

# lookup: % Activity of O=C(Nc1ccc(N2CCC[C@@H]2C(=O)O)cc1C(F)(F)F)c1c[nH]c2ccccc2c1=O
++ (between 25% to 100%)

# get_value(readout='% Activity', item= Cc1ccc(NC(=O)c2c[nH]c3ccccc3c2=O)cc1C )
++ (between 25% to 100%)

What value of % Activity has been recorded for this entry: CNc1cc(NC(=O)c2c[nH]c3ccccc3c2=O)ccc1C(C)(C)C
++ (between 25% to 100%)

Recorded % Activity for CCCCCc1ccc(NC(=O)c2c[nH]c3ccccc3c2=O)cc1 , please?
++ (between 25% to 100%)

Field request: % Activity | item: Cc1ccnc(NC(=O)c2c[nH]c3ccccc3c2=O)c1
+ (<25%)

Field request: % Activity | item: NC(=O)c1ccccc1NC(=O)c1c[nH]c2ccccc2c1=O
+ (<25%)

I am curious: what % Activity value has been reported for O=C(c1ccccc1)c1ccccc1NC(=O)c1c[nH]c2ccccc2c1=O ?
++ (between 25% to 100%)

Fill blank: measured % Activity of the molecule COc1ccc2c(=O)c(C(=O)Nc3ccc(N4CCC[C@@H]4C)cc3C(F)(F)F)c[nH]c2c1 is ____.
++ (between 25% to 100%)
